target or system: human sEH (Homo sapiens)
experiment notes: Determination of inhibitory potency
condition info: read-out: Human sEH IC50; recombinant affinity purified human sEH, means of three separate experiments
IC50 less than 40 nM is MET; IC50 greater than or equal to 40 nM is NOT MET.

| molecule | label class |
| --- | --- |
| CC1(C)C2CCC1(C)C(NC(=S)Nc1ccc(F)cc1)C2 [Compound D-3f] | MET |
| CC1(C)C2CCC1(C)C(NC(=S)Nc1ccc(F)cc1)C2 (racemic) [L/D-3f] | MET |
| CC1(C)C2CCC1(C)C(NC(=S)Nc1ccc(F)cc1)C2 [Compound L-3f] | MET |
| CC12CCC(C1)C(C)(C)C2NC(=O)Nc1cccc(F)c1 [Compound D-6a] | NOT MET |
| CC1(C)C2CCC1(C)C(NC(=S)Nc1cccc(F)c1)C2 [Compound L-3e] | NOT MET |

* * *

experiment notes: Solubility by turbidimetric assay in sodium phosphate buffer
Type: physicochemical
condition info: sodium phosphate buffer pH 7.4, 0.1 M, 1% DMSO

| compound | Solubility (µM) |
| --- | --- |
| CC1(C)C2CCC1(C)C(NC(=O)Nc1ccccc1Cl)C2 [Compound D-3c] | 30 |
| CC1(C)C2CCC1(C)C(NC(=O)Nc1ccccc1Cl)C2 (racemic) [L/D-3c] | 30 |
| CC1(C)C2CCC1(C)C(NC(=O)Nc1ccc(F)cc1)C2 (racemic) [L/D-3b] | 65 |
| CC12CCC(C1)C(C)(C)C2NC(=S)Nc1cccc(F)c1 [Compound D-6e] | 10 |
| CC12CCC(C1)C(C)(C)C2NC(=O)Nc1cccc(Cl)c1 [Compound L-6d] | 40 |
| CC12CCC(C1)C(C)(C)C2NC(=O)Nc1cccc(F)c1 [Compound L-6a] | 45 |
| CC1(C)C2CCC1(C)C(NC(=S)Nc1ccc(F)cc1)C2 [Compound D-3f] | 15 |
| CC12CCC(C1)C(C)(C)C2NC(=S)Nc1ccc(F)cc1 [Compound D-6f] | 15 |
| CC1(C)C2CCC1(C)C(NC(=O)Nc1ccc(F)cc1)C2 [Compound L-3b] | 65 |
| CC1(C)C2CCC1(C)C(NC(=S)Nc1ccc(F)cc1)C2 [Compound L-3f] | 15 |
| CC12CCC(C1)C(C)(C)C2NC(=O)Nc1cccc(Cl)c1 [Compound D-6d] | 40 |
| CC1(C)C2CCC1(C)C(NC(=S)Nc1cccc(F)c1)C2 (racemic) [L/D-3e] | 10 |
| CC12CCC(C1)C(C)(C)C2NC(=O)Nc1ccccc1Cl [Compound D-6c] | 40 |
| CC12CCC(C1)C(C)(C)C2NC(=O)Nc1ccc(F)cc1 [Compound D-6b] | 65 |
| CC12CCC(C1)C(C)(C)C2NC(=O)Nc1ccc(F)cc1 [Compound L-6b] | 65 |
| CC1(C)C2CCC1(C)C(NC(=S)Nc1ccc(F)cc1)C2 (racemic) [L/D-3f] | 15 |
| CC12CCC(C1)C(C)(C)C2NC(=S)Nc1cccc(F)c1 [Compound L-6e] | 10 |
| CC1(C)C2CCC1(C)C(NC(=O)Nc1cccc(F)c1)C2 (racemic) [L/D-3a] | 50 |
| CC1(C)C2CCC1(C)C(NC(=O)Nc1cccc(F)c1)C2 [Compound D-3a] | 50 |
| CC1(C)C2CCC1(C)C(NC(=O)Nc1ccccc1Cl)C2 [Compound L-3c] | 30 |
| CC1(C)C2CCC1(C)C(NC(=O)Nc1cccc(Cl)c1)C2 [Compound D-3d] | 35 |
| CC1(C)C2CCC1(C)C(NC(=O)Nc1cccc(Cl)c1)C2 (racemic) [L/D-3d] | 35 |
| CC1(C)C2CCC1(C)C(NC(=S)Nc1cccc(F)c1)C2 [Compound D-3e] | 10 |

* * *

target or system: human sEH (Homo sapiens, UniProt P34913)
Sequence (P34913 whole entry): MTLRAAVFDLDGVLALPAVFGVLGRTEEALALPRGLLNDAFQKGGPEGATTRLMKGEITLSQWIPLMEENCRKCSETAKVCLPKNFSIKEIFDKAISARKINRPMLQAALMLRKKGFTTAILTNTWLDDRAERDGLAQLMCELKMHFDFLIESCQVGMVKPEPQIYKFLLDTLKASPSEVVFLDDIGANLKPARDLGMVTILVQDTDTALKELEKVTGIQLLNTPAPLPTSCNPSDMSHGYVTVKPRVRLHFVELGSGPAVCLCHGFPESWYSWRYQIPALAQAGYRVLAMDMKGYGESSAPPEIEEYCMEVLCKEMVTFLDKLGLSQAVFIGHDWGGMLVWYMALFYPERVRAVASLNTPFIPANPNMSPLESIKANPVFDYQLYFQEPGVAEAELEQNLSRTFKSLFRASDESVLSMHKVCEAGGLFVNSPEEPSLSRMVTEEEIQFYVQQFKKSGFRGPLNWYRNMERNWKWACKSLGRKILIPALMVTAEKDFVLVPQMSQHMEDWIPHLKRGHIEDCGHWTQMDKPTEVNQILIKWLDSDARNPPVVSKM
experiment notes: Determination of inhibitory potency
condition info: read-out: Human sEH IC50; recombinant affinity purified human sEH, means of three separate experiments
Entries annotated with measured IC50

| compound | IC50 [µM] |
| --- | --- |
| CC1(C)C2CCC1(C)C(NC(=O)Nc1cccc(F)c1)C2 [Compound L-3a] | 0.0007 |
| CC1(C)C2CCC1(C)C(NC(=O)Nc1cccc(F)c1)C2 (racemic) [L/D-3a] | 0.0015 |
| CC1(C)C2CCC1(C)C(NC(=O)Nc1cccc(Cl)c1)C2 [Compound L-3d] | 0.0015 |
| CC12CCC(C1)C(C)(C)C2NC(=S)Nc1ccc(F)cc1 [Compound L-6f] | 4.23 |
| CC1(C)C2CCC1(C)C(NC(=S)Nc1cccc(F)c1)C2 [Compound D-3e] | 0.176 |
| CC12CCC(C1)C(C)(C)C2NC(=S)Nc1cccc(F)c1 [Compound D-6e] | 6.48 |
| CC12CCC(C1)C(C)(C)C2NC(=S)Nc1cccc(F)c1 [Compound L-6e] | 2.98 |
